Tested on: P388 leukemia ip, CD2F1 mice, survival T/C
Test: NCI In Vivo Anticancer Drug Screen. Data for tumor model P388 Leukemia (intraperitoneal) in CD2F1 (CDF1) mice
Settings: endpoint: median survival time; dose: 400.0 mg/kg/injection; schedule: Q04DX003 (ip); vehicle: Klucel (hydroxypropylcellulose) (HPC); higher = longer survival
Inconclusive results and toxic doses are left out.
Measured T/C accompanies every entry in the list below.

Example entries and their recorded answers appear below.
{"MOLECULE": "Clc1ccc(CN2COc3c(cc(Cl)c4cccnc34)C2)cc1Cl", "T/C": "89 % of control"}
{"MOLECULE": "Cc1ccc(S(=O)c2ccccc2)c(C(O)(C(F)(F)F)C(F)(F)F)c1 (configuration not stated)", "T/C": "94 % of control"}
{"MOLECULE": "O=S1(=O)CCOc2ccccc2N1", "T/C": "90 % of control"}

Prompt: State the recorded T/C for this entry: C=C(C)[C@@H]1CC[C@](C)(CCC#N)/C(=N\NC(N)=O)C1
Response: 89 % of control

Prompt: Again, but for Cc1ccc(N2C(=O)CC3(CCCCC3)C2=O)cc1[N+](=O)[O-]
Response: 99 % of control

Prompt: Next entry: CCCCCCCCCCCCCCCCCCON
Response: 94 % of control

Prompt: For BrC=C1c2ccccc2-c2ccccc21 then?
Response: 102 % of control

---

Test system: P388 leukemia ip, CD2F1 mice, survival T/C
Experiment: NCI In Vivo Anticancer Drug Screen. Data for tumor model P388 Leukemia (intraperitoneal) in CD2F1 (CDF1) mice
Conditions: endpoint: median survival time; dose: 120.0 mg/kg/injection; schedule: Q01DX005 (ip); vehicle: Klucel (hydroxypropylcellulose) (HPC); higher = longer survival
Inconclusive results and toxic doses are left out.
Listed here are molecules together with their documented T/C.

// known answers, use as guide
{"MOLECULE": "Cc1ccc2nc(Nc3nc(C)cc(C)n3)[nH]c2c1", "EXPERIMENTAL_RESULT": "100 % of control"}
{"MOLECULE": "COC1OC2COc3ccccc3OC2C(NC#N)C1OC (centres undefined)", "EXPERIMENTAL_RESULT": "108 % of control"}
{"MOLECULE": "Cc1cc2c(c(O)cc(=O)n2C)c(=O)n1C", "EXPERIMENTAL_RESULT": "91 % of control"}
{"MOLECULE": "O=C(CCCCCO)c1nc2ccccc2s1", "EXPERIMENTAL_RESULT": "102 % of control"}
{"MOLECULE": "O=c1[nH]nc2c3cccc4cccc(c5ccc(O)c1c52)c43", "EXPERIMENTAL_RESULT": "97 % of control"}
{"MOLECULE": "COc1ccc(C2C(C#N)=C(c3ccccc3)OC(OC)(OC)C2(OC)OC)cc1 (centres undefined)", "EXPERIMENTAL_RESULT": "102 % of control"}
{"MOLECULE": "CCC(C)(C)c1ccc(OCCCCNC(=O)c2ccc3ccccc3c2O)c(C(C)(C)CC)c1", "EXPERIMENTAL_RESULT": "89 % of control"}
{"MOLECULE": "Cc1c(-c2ccccc2)n[nH]c1-c1[nH]nc(-c2ccccc2)c1C", "EXPERIMENTAL_RESULT": "94 % of control"}

Now for a further molecule.
Prompt: What is its T/C for P388 leukemia ip, CD2F1 mice, survival T/C? Entry: Clc1cccc2c(SCCCCCSc3c4ccccc4nc4c(Cl)cccc34)c3ccccc3nc12
Response: 93 % of control
